Values from patent US9957297B2

Molecular target: T1, Formyl-Peptide Receptor 1 (UniProt P21462 1-350, limits assumed)
T1 sequence (looked up): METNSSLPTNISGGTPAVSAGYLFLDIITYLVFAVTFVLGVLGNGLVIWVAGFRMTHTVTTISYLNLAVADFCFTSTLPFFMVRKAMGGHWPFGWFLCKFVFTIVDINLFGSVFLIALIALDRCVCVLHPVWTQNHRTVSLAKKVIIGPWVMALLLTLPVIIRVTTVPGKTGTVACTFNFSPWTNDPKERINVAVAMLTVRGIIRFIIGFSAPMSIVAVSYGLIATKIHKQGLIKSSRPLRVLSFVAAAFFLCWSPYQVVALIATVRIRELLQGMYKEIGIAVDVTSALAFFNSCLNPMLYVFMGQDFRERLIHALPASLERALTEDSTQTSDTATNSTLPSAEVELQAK
Assay: cell-based or functional assay
Bridges are numbered along the chain shown (N, C = ends). [ ]: non-standard residue; d: D form. Dab = NCC[C@H](N)C(=O)O
measured.attribute: β-Arrestin IC50 (nM)
Give the value, in units of nM, as a plain number.

Prompt: What does the data say about its β-Arrestin IC50? Entry: cyclo(YHKCWG[dP]WTICYEK[dA]P) (disulfide 4-11; SMILES CC[C@H](C)[C@@H]1NC(=O)[C@H]([C@@H](C)O)NC(=O)[C@H](Cc2c[nH]c3ccccc23)NC(=O)[C@H]2CCCN2C(=O)CNC(=O)[C@H](Cc2c[nH]c3ccccc23)NC(=O)[C@@H]2CSSC[C@H](NC1=O)C(=O)N[C@@H](Cc1ccc(O)cc1)C(=O)N[C@@H](CCC(=O)O)C(=O)N[C@@H](CCCCN)C(=O)N[C@H](C)C(=O)N1CCC[C@H]1C(=O)N[C@@H](Cc1ccc(O)cc1)C(=O)N[C@@H](Cc1c[nH]cn1)C(=O)N[C@@H](CCCCN)C(=O)N2) [cyclo(-Tyr-His-Lys-Cys-Trp-Gly-^DPro-Trp-Thr-Ile-Cys-Tyr-Glu-Lys-^DAla-Pro-)]
Completion: 126

Prompt: What does the data say about its β-Arrestin IC50? Entry: cyclo(YHKCHG[dP]WTICYE[Dab][dP]P) (disulfide 4-11; SMILES CC[C@H](C)[C@@H]1NC(=O)[C@H]([C@@H](C)O)NC(=O)[C@H](Cc2c[nH]c3ccccc23)NC(=O)[C@H]2CCCN2C(=O)CNC(=O)[C@H](Cc2c[nH]cn2)NC(=O)[C@@H]2CSSC[C@H](NC1=O)C(=O)N[C@@H](Cc1ccc(O)cc1)C(=O)N[C@@H](CCC(=O)O)C(=O)N[C@@H](CCN)C(=O)N1CCC[C@@H]1C(=O)N1CCC[C@H]1C(=O)N[C@@H](Cc1ccc(O)cc1)C(=O)N[C@@H](Cc1c[nH]cn1)C(=O)N[C@@H](CCCCN)C(=O)N2) [cyclo(-Tyr-His-Lys-Cys-His-Gly-^DPro-Trp-Thr-Ile-Cys-Tyr-Glu-Dab-^DPro-Pro-)]
Completion: 82
